System: MALME-3M melanoma
Assay: NCI tumour cell line growth inhibition, 48 h

Molecule	Unit Of Measurement	Relation Sign	TGI
Fc1[nH]nc2ccc([C@@H]3Nc4ccc5[nH]ncc5c4[C@H]4C5CCC(C5)[C@@H]34)cc12 (stereo partly drawn)	µM	=	26
COc1cc2nc3n(c(=O)c2cc1OC)-c1ccc([N+](=O)[O-])cc1C3=O	µM	>	100
COc1cc(C(=O)N(C(=S)OCc2ccccn2)c2ccccc2)cc(OC)c1OC	µM	=	62

* * *

Test system: HCC-2998 colon
Assay: NCI tumour cell line growth inhibition, 48 h

Smiles Entry	Tested On	GI50
COc1cnc2c(c1)C(=O)c1c-2n(CCCN2CCOCC2)c(=O)c2cc(F)ccc12	HCC-2998 colon	2.75 µM
C=CCO[C@H]1CO[C@H]2[C@@H]1OC[C@@H]2Oc1ccc(Nc2ccnc(Nc3ccc(O[C@H]4CO[C@H]5[C@@H]4OC[C@@H]5OCC=C)c(Cl)c3)n2)cc1Cl	HCC-2998 colon	1.94 µM
FC(F)(F)c1cccc(Nc2nc(-c3ccccc3)nc3ncccc23)c1	HCC-2998 colon	4.91 µM

* * *

System: UACC-257 melanoma
Experiment: NCI tumour cell line growth inhibition, 48 h
Form field: TGI (one value per entry).

Compound	Tested On	TGI
NC1=NCCC1(c1ccccc1)c1ccccn1 (stereo not given)	UACC-257 melanoma	> 100 µM
O=C(N/N=C(/COc1ccc(Cl)cc1)N=Cc1ccncc1)c1ccncc1	UACC-257 melanoma	> 100 µM
Cc1ccc(CN2CCC(C(=O)Nc3ccc(-c4cc5ccccc5[nH]4)cc3)CC2)o1	UACC-257 melanoma	> 100 µM
Cc1c(C(=O)C/C(=N/NC(=O)c2ccccc2O)C(=O)Nc2ccccc2C(C)C)[n+](=O)c2ccccc2n1[O-]	UACC-257 melanoma	> 100 µM
C=C(C)C(OC)C(O)CC1(C)CC(O)CC(C)(C2CCC3OC(C4(C)CCC(Br)C(C)(C)O4)CCC3(C)O2)O1 (stereo not given)	UACC-257 melanoma	43 µM

* * *

System: SF-268 CNS
Test: NCI tumour cell line growth inhibition, 48 h

Smiles Entry	TGI
CN(C)N=Nc1ccc(C(N)=O)cc1	> 100 µM
Cc1cc(NS(=O)(=O)c2ccc(Nc3c4ccccc4nc4c(C(=O)N5CCN(CCOS(C)(=O)=O)CC5)cccc34)cc2)no1	> 100 µM
Cc1ccc(Cl)c2[nH]c(-c3ccccc3)cc(=O)c12	79.7 µM
CCOC(=O)/C=C/CC(C)(C)CCOC(C)=O	> 10 µM
COc1ccc2cc(NC(=O)N/N=C\c3ccc([N+](=O)[O-])cc3)ccc2c1	55.4 µM
COc1cccc(C(=O)O[C@H]2[C@@H]3[C@]4(OC(C)=O)CO[C@@H]4C[C@H](O)[C@@]3(C)C(=O)[C@H](OC(C)=O)C3=C(C)[C@@H](OC(=O)[C@H](O)[C@@H](NC(=O)OC(C)(C)C)c4ccco4)C[C@]2(O)C3(C)C)c1	> 37.5 µM
O=C(CC(=O)c1cccc2ccccc12)C(=O)Nc1ccc(Cl)cc1	> 100 µM
O=c1[nH]c(Nc2cccc(CC(F)(F)F)c2)nc2nc[nH]c12	> 100 µM
COc1ccc(COCCOCc2nc(C#N)c(N)o2)cc1	> 100 µM

* * *

System: T-47D breast
Assay: NCI tumour cell line growth inhibition, 48 h; in the data active means GI50 below about 0.43 µM; inactive means the rest
Outcomes: 1 (yes) (active), 0 (no) (inactive)

Compound	Tested On	Category Label
CC1CCc2nc[nH]c(=O)c21 (stereo unspecified)	T-47D breast	0 (no)
O=C1NC(=NCCc2cccc(F)c2)S/C1=C\c1ccc2ncccc2c1	T-47D breast	0 (no)
COC([CH2][Hg][n]1cnc2c1c(=O)n(C)c(=O)n2C)CN1C(=O)c2ccccc2S1(=O)=O (stereo unspecified)	T-47D breast	0 (no)
CCN1/C(=C\c2cc[n+](CC)c3ccccc23)C=Cc2ccccc21	T-47D breast	1 (yes)
Cc1ccc2c(C)c3c(ccc4ccccc43)c[n+]2c1	T-47D breast	0 (no)
CCOC1Oc2ccccc2C(=O)/C1=C/Nc1ccc(C(C)=O)cc1 (stereo unspecified)	T-47D breast	0 (no)

* * *

Catalogue of GI50 readings, one per entry.
Test system: SK-MEL-28 melanoma
Experiment: NCI tumour cell line growth inhibition, 48 h

Compound	GI50
O=C(Nc1ccc(-n2ccc3c(NC(=O)c4ccccc4)nccc32)cc1)c1ccc(Cl)c(C(F)(F)F)c1	4.99 µM
O=C(CCN1CCCCC1)C(=Cc1ccccc1)C(=O)CCN1CCCCC1	> 100 µM
OC1CSSC1Cn1cnc2c(Nc3ccc(OCc4cccc(F)c4)c(Cl)c3)ncnc21 (stereo not drawn)	0.591 µM
CN1CCCCC1CCN1c2ccccc2Sc2ccc(Cl)cc21 (stereo not drawn)	2.23 µM
C=CC(=O)Nc1cc(Nc2ncc(C(=O)OC(C)C)c(-c3cn(C)c4ccccc34)n2)c(OC)cc1N(C)CCN(C)C	2.43 µM
Cc1ccc2c(C)c3c(ccc4ccccc43)c[n+]2c1	4.68 µM
Cn1cc(C2=C(c3c4n(c5ccccc35)CCCCC4)C(=O)NC2=O)c2ccccc21	12.6 µM
CC(=O)[CH-]C(=O)c1ccccc1.CC(=O)[CH-]C(=O)c1ccccc1.CN(C)c1ccc([O-])cc1.CN(C)c1ccc([O-])cc1.Cl.[Ti+4]	> 31.6 µM

* * *

System: A498 renal
Experiment: NCI tumour cell line growth inhibition, 48 h
Value Kind: TGI

Compound	Value Kind	Measured Value
Fc1ccc(NC(=S)SCc2ccc3c(c2)OCO3)cc1F	TGI	61.8 µM
CCN1CCN(Cc2ccc(NC(=O)c3cccc(C#Cc4cccc5[nH]nc(N)c45)c3)cc2C(F)(F)F)CC1	TGI	1.07 µM
COc1ccc(CC2c3cc4c(cc3CCN2C)OCO4)c(C=O)c1OC (stereo not given)	TGI	> 100 µM
COc1ccc(-c2c(C#N)c(-c3ccc(C)cc3)n(NS(=O)(=O)c3ccc(C)cc3)c(=O)c2C#N)cc1	TGI	> 100 µM
COC(=O)c1c(C)cccc1C1CN=NC12Cc1ccc(C)cc1C2=O (stereo not given)	TGI	> 100 µM

* * *

Quick reference: GI50 of the listed items.
System: CAKI-1 renal
Assay: NCI tumour cell line growth inhibition, 48 h

Molecule	GI50
CC1CCC(n2c3cnccc3c3cnc(Nc4ccc5c(n4)CCN(C(=O)CO)C5)nc32)CC1 (configuration not stated)	0.536 µM
Nc1ccccc1C#C/C=C\C#Cc1ccccc1OC(F)(F)F	4.42 µM
OC1CSSC1Cn1cnc2c(Nc3ccc(OCc4cccc(F)c4)c(Cl)c3)ncnc21 (configuration not stated)	2.2 µM
OCc1cc2ccccc2c2c3c(ccc12)OCO3	29.3 µM
O=C(Nc1ccccc1)c1c(O)[nH]c(=S)[nH]c1=O	28 µM
CCN1/C(=C\c2cc[n+](CC)c3ccccc23)C=Cc2ccccc21	4.71 µM
COc1ccc2c(c1)sc1nc(-c3ccccc3)c(-c3cccc4ccccc34)n12	0.792 µM

* * *

Tested on: DU-145 prostate
Assay: NCI tumour cell line growth inhibition, 48 h
Value Kind: TGI

Compound	Value Kind	Measured Value
Cc1cn2c(/C=N/N=C(N)N)c(-c3cccc([N+](=O)[O-])c3)nc2s1	TGI	3.27 µM
COc1ccc(-c2cc(O)c3nc4ccccc4n3c2)cc1	TGI	> 100 µM
NC(N)=N/N=C/c1c(-c2ccc(N)cc2)nc2sccn12	TGI	35.5 µM
CCOC(=O)CSc1c(C(=O)OCC)c(=O)n(-c2ccccc2)c(=S)n1-c1ccccc1	TGI	> 100 µM
CC[C@@H]1CC[C@@H]2[C@H](CC[C@]3(C)[C@@H](OC(C)=O)CC[C@@H]23)[C@H]1COC(C)=O	TGI	> 100 µM
CCC(=O)[C@H](C)[C@@H](OC(=O)[C@H](C)CC)[C@H](C)[C@H]1OC(CC)=C(C)C(=O)[C@@H]1C	TGI	68.4 µM
Nc1c(C(=O)c2cccc(CCS(N)(=O)=O)c2)cnn1-c1ccc(F)cc1	TGI	> 25 µM
O=[N+]([O-])c1ccc2c(c1)/C(=N/N=C1c3ccccc3Cc3ccccc31)c1cc([N+](=O)[O-])cc([N+](=O)[O-])c1-2	TGI	13.7 µM
Cn1cc(C2=C(c3c4n(c5ccccc35)CCCCC4)C(=O)NC2=O)c2ccccc21	TGI	> 17.3 µM
CC(=O)OC1CC(OC2C(O)CC(OC3C(O)CC(OC4CCC5(C)C(CCC6C5CC(O)C5(C)C(C7=CC(=O)OC7)CCC65O)C4)OC3C)OC2C)OC(C)C1OC1OC(CO)C(O)C(O)C1O (stereo not drawn)	TGI	0.106 µM
COc1cccc(C(=O)O[C@H]2[C@@H]3[C@]4(OC(C)=O)CO[C@@H]4C[C@H](O)[C@@]3(C)C(=O)[C@H](OC(C)=O)C3=C(C)[C@@H](OC(=O)[C@H](O)[C@@H](NC(=O)OC(C)(C)C)c4ccco4)C[C@]2(O)C3(C)C)c1	TGI	> 37.5 µM
CO/C(=N\N=C\c1ccc(C(F)(F)F)cc1)c1ccncc1	TGI	> 10 µM
COc1ccc2c(c1)/C(=C/CCN(C)C)c1ccccc1S2	TGI	> 100 µM
COC(=O)C1SC(SC)=NC12c1ccccc1Nc1ccccc12 (stereo not drawn)	TGI	> 100 µM
Cc1n[nH]c(=O)n1/N=C/c1ccc(Cl)cc1	TGI	> 100 µM
CN(C)C(=O)O/N=C1/C(c2c(O)[nH]c3ccccc23)=Nc2ccccc21	TGI	> 100 µM
C=CCOc1ccc2c(C)cc(=O)oc2c1C	TGI	> 100 µM
Cc1nc2sccn2c1-c1csc(Nc2ccccc2Cl)n1	TGI	68.8 µM
